TGI values for the molecules below.
tested on: MDA-N; assay: NCI tumour cell line growth inhibition, 48 h
Write it as a number; the unit µM goes unstated.

Sample records with TGI:
>>> number("CC(=O)[O][Hg][c]1c(C)c(C)cc(C)c1C")
2.08
>>> number("O=C1C(CN2CCOCC2)CCCC1CN1CCOCC1 (stereo unspecified)")
16.1
>>> number("CN(C)/N=C1\\CC(c2ccccc2)C(C#N)(C#N)C1(C#N)C#N (stereo unspecified)")
40

Next:
Task: Find the recorded TGI belonging to `CSC(=Nc1ccccc1)/N=C(\SCc1ccccc1)N(C)C` and report it.
Result: 2.03

---

GI50 values for the compounds below.
tested on: MALME-3M melanoma; assay: NCI tumour cell line growth inhibition, 48 h

>>> result("CC(=O)c1c(C)[nH]c(-c2nc3ccc(N4CCN(C)CC4)cc3[nH]2)c1-c1ccccc1")
"961 nM"

Task: Find the recorded GI50 belonging to `O=C(Nc1nc2ccccc2s1)Nc1ccc([N+](=O)[O-])cc1Cl` and report it.
Result: 2820 nM

Task: Proceed to O=C(CN1C(=O)S/C(=C\C(Cl)=C\c2ccccc2)C1=O)NC1C=CS(=O)(=O)C1 (stereo not drawn)
Result: 1270 nM

---

tested on: T-47D breast; assay: NCI tumour cell line growth inhibition, 48 h
readout.label: TGI (µM)
Write it as a number; the unit µM goes unstated.

Sample records with TGI:
>>> number("NS(=O)(=O)OCCCCCCCOS(N)(=O)=O")
1880
>>> number("O=C1/C=C/[C@@H](O)[C@@H]2C[C@@H](O)C[C@H]2/C=C/CCC[C@H](C(F)(F)F)O1")
0.52
>>> number("CC(=O)N1CCn2c1nc1cc(Cl)ccc12")
51.4
>>> number("CCC(=O)c1c(C(F)(F)F)n([O-])c2cc(F)c(F)cc2[n+]1=O")
7.04
>>> number("Cc1cc(Cl)nc(N(CCCNc2ccnc3cc(Cl)ccc23)Cc2ccco2)n1")
6.43
>>> number("CN(C)/N=C1\\CC(c2ccccc2)C(C#N)(C#N)C1(C#N)C#N (configuration not stated)")
50.3
>>> number("CCOC(=O)c1cnc2c(C)cccc2c1Nc1ccc(C(C)=O)cc1")
44.9
>>> number("CC1CC(=O)N(N(C)C)C(C#N)(C#N)C1(C#N)C#N (configuration not stated)")
42.1

Next:
Task: Find the recorded TGI belonging to O=C(CN1C(=O)S/C(=C\C(Cl)=C\c2ccccc2)C1=O)NC1C=CS(=O)(=O)C1 (configuration not stated) and report it.
Result: 8.19

---

TGI values for the molecules below.
test system: HOP-62 NSCLC; experiment: NCI tumour cell line growth inhibition, 48 h
Write it as a number; the unit µM goes unstated.

Sample records with TGI:
>>> number("C[C@H]1S[C@H](c2c(Cl)cccc2Cl)N2Cc3ccccc3N=C12")
32.6
>>> number("O=c1[nH]cnc2c1nnn2CCCCCCCCCCCCn1nnc2c(=O)[nH]cnc21")
54
>>> number("COc1ccc(C(OCC2OC(n3ccc(NC(=O)c4ccccc4)nc3=O)CC2OP2(=S)SCCS2)(c2ccccc2)c2ccc(OC)cc2)cc1 (centres undefined)")
43.9

Next:
Task: Give HOP-62 NSCLC TGI for `C[Si](C)(C)C1=C([Si](C)(C)C)C(Cl)(Cl)C1=O`
Result: 41.4

The reported measurements were obtained from PubChem BioAssay (NCI).
